Values from paper PMC8010095

Listing of entries alongside the reported LeuRS inhibition activity, %.
subject-of-test: M. tuberculosis leucyl-tRNA synthetase (LeuRS) (Mycobacterium tuberculosis)
Construct: made in house; host or cells: Escherichia coli
Sequence (P9WFV1 whole entry): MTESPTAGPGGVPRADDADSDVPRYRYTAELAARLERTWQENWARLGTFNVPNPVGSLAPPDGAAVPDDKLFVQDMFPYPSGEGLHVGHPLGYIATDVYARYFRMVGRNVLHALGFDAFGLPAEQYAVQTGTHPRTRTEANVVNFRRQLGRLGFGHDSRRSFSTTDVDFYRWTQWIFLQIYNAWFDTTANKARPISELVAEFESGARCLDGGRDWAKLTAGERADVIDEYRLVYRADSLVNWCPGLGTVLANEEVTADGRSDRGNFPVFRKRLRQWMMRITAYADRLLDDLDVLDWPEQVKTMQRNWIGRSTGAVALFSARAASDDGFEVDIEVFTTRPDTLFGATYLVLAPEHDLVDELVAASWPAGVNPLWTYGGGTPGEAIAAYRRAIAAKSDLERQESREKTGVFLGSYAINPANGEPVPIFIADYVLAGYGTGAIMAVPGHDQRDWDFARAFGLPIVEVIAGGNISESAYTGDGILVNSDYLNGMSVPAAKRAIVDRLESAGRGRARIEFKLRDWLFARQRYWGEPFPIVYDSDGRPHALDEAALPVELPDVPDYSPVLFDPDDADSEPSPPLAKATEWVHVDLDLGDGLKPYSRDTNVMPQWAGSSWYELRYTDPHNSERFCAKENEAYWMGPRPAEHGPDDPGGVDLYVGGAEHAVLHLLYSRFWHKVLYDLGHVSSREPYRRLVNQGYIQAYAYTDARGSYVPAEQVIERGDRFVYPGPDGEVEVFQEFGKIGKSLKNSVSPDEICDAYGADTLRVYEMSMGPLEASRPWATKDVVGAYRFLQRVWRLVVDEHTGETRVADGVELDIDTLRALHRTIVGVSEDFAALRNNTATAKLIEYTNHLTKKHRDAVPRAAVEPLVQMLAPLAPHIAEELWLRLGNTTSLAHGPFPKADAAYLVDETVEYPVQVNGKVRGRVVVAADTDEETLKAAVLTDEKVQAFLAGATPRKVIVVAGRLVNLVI
method-summary: biochemical; further: test concentration or dose not given here
Type: biochemical
measurement-context: recombinant enzyme; mean ± spread (n in brackets); negative = activation

// known answers, use as guide
molecule: Cc1ccccc1-c1noc(-c2nnn(-c3ccc(Br)cc3)c2C)n1
LeuRS inhibition activity, %: 18 ± 4 (2) %
--
molecule: CCOc1ccc(-c2noc(-c3nnn(-c4ccccc4Cl)c3N)n2)cc1
LeuRS inhibition activity, %: 36 ± 16 (3) %
--
molecule: Nc1c(-c2nc(-c3ccc(F)cc3)no2)nnn1-c1ccccc1
LeuRS inhibition activity, %: 1 ± 8 (2) %

Moving on to the next compound.
// LeuRS inhibition activity, % lookup, compound = `Nc1c(-c2nc(-c3ccc(F)cc3)no2)nnn1-c1ccc(F)cc1` , result: 3 ± 7 (2) %
